Reference source for all entries: patent US20190000964A1

target: human CCR5 receptor (hCCR5) (human), P51681; experiment: inhibition of gp120BaL/sCD4 binding to Cf2Th/synR5 cells (FIG. 4A)
Sequence (P51681 whole entry): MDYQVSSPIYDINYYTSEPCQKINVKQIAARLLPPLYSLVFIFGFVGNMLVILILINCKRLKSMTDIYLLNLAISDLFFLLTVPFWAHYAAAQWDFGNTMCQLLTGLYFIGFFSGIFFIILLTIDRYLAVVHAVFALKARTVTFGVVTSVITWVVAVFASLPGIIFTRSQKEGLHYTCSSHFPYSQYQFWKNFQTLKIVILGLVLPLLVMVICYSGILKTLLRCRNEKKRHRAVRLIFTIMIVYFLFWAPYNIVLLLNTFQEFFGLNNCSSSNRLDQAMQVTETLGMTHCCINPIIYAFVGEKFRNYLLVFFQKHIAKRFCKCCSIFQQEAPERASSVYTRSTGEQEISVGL
readout.kind: IC50 (pM)
Answers are plain numbers, in pM.

INPUT: Determine its reported IC50: ASTTTNYT (modifications not checked) [DAPTA (Dala1-peptide T-amide)]
OUTPUT: 55
